Catalogue of Tmax readings, one per entry.
assay.summary: Oral pharmacokinetics in rats
Assay type: in vivo, male Wistar rats
assay.conditions: male, Wistar, po; p.o. 3 mg/kg; rat plasma; analyte prodrug
# output: bare number, implied unit min

> print(dat)
                                smiles.repr  value.reported
1  Cc1c(Cl)c(C)[n+]([O-])c(Cl)c1-c1noc(-c2cc(OP(=O)(O)O)c(O)c([N+](=O)[O-])c2)n1              30

Read the next record carefully.
**Q:** Specify measured Tmax for Cc1c(Cl)c(C)[n+]([O-])c(Cl)c1-c1noc(-c2cc(OCOP(=O)(O)O)c(O)c([N+](=O)[O-])c2)n1 .
**A:** 30

* * *

assay.summary: Intravenous pharmacokinetics in rats
Format: in vivo, male Wistar rats
assay.conditions: male, Wistar, plasma, iv; i.v. 1 mg/kg; rat; analyte prodrug
Procedure: The pharmacokinetic properties of compounds 1 and 4 compared to micronized crystalline opicapone were assessed by intravenous injection to 3 male Wistar rats (1 mg/kg; DMSO:20% HPBCD (1:9). During the studies, blood was collected at different time points, from jugular vein, spun at 1500×g in a refrigerated centrifuge (4° C.) for 15 min, and the plasma obtained was stored at −80° C. until further analysis. The plasma samples collected were analysed for compound 1, compound 4 and opicapone exposure. […]
Catalogue of Vd readings, one per entry.
# output: bare number, implied unit L/kg

> print(dat)
                                smiles.repr  value.reported
1  Cc1c(Cl)c(C)[n+]([O-])c(Cl)c1-c1noc(-c2cc(OP(=O)(O)O)c(O)c([N+](=O)[O-])c2)n1           0.123

**Q:** Specify measured Vd for Cc1c(Cl)c(C)[n+]([O-])c(Cl)c1-c1noc(-c2cc(OCOP(=O)(O)O)c(O)c([N+](=O)[O-])c2)n1 .
**A:** 1.99
